Where these numbers come from: BindingDB's records for doi:10.1016/j.bmcl.2013.04.079

# Test Details: Antagonist activity at human CCR1 assessed as inhibition of ieukotactin-1-induced chemotaxis
Readout Kind: pIC50
In plain terms, pIC50 is the concentration in mol/L turned into minus its base-10 logarithm.

Entry `CC(C)[C@@H](NC(=O)[C@@H]1CC[C@@H](O)C1)C(=O)N1CC[C@](O)(c2ccc(Cl)cc2)C(C)(C)C1` — recorded pIC50 = 8.36

====

I'd be grateful if you could share measured log10 of IC50 for these entries.
# Test Details: Antagonist activity at human CCR1 assessed as inhibition of MIP1alpha-induced chemotaxis
Hi team, quick reminder: these entries are log10 of IC50 (nM).

Entry `CC(=O)N[C@@H](C(=O)N1CC[C@](O)(c2ccc(Cl)cc2)C(C)(C)C1)C(C)C` — recorded log10 of IC50 = 1.18

Entry `CC(C)[C@@H](NC(=O)c1ccccc1)C(=O)N1CC[C@](O)(c2ccc(Cl)cc2)C(C)(C)C1` — recorded log10 of IC50 = 1.00

Entry `CC(C)[C@@H](NC(=O)[C@@H]1CC[C@H](O)C1)C(=O)N1CC[C@](O)(c2ccc(Cl)cc2)C(C)(C)C1` — recorded log10 of IC50 = 0.46

Entry `CC(C)[C@@H](NC(=O)[C@@H]1CCC[C@@H]1N)C(=O)N1CC[C@](O)(c2ccc(Cl)cc2)C(C)(C)C1` — recorded log10 of IC50 = 0.75

Entry `CC(C)[C@@H](NC(=O)c1cccnc1)C(=O)N1CC[C@H](c2ccc(Cl)cc2)C(C)(C)C1` — recorded log10 of IC50 = 1.46

Entry `CC(C)[C@@H](NC(=O)c1cccnc1)C(=O)N1CC[C@](O)(c2ccc(Cl)cc2)C2(CC2)C1` — recorded log10 of IC50 = 1.32

Entry `CC(C)[C@@H](NC(=O)c1ccc(Cl)cc1)C(=O)N1CC[C@](O)(c2ccc(Cl)cc2)C(C)(C)C1` — recorded log10 of IC50 = 0.74

Entry `CC(C)[C@@H](NC(=O)[C@@H]1CC[C@@H](O)C1)C(=O)N1CC[C@](O)(c2ccc(Cl)cc2)C(C)(C)C1` — recorded log10 of IC50 = 0.32

Entry `CC(C)[C@@H](NC(=O)c1ccccc1Cl)C(=O)N1CC[C@](O)(c2ccc(Cl)cc2)C(C)(C)C1` — recorded log10 of IC50 = 0.67

Entry `CC(C)[C@@H](NC(=O)[C@H]1CC[C@@H](O)C1)C(=O)N1CC[C@](O)(c2ccc(Cl)cc2)C(C)(C)C1` — recorded log10 of IC50 = 0.04

Entry `CC(C)[C@@H](NC(=O)[C@@H]1CCC[C@@H]1O)C(=O)N1CC[C@](O)(c2ccc(Cl)cc2)C(C)(C)C1` — recorded log10 of IC50 = 0.49

Entry `CC(C)[C@@H](NC(=O)C1CCCC1)C(=O)N1CCN(c2ccc(Cl)cc2)C(C)(C)C1` — recorded log10 of IC50 = 1.26

Entry `CC(C)[C@@H](NC(=O)c1cccc(-c2ccccc2NC(N)=O)c1)C(=O)N1CC[C@](O)(c2ccc(Cl)cc2)C(C)(C)C1` — recorded log10 of IC50 = 1.68

Entry `CC(C)[C@@H](NC(=O)c1cccnc1)C(=O)N1CC[C@](O)(c2ccc(Cl)cc2)C(C)(C)C1` — recorded log10 of IC50 = 0.79

Entry `CC(C)[C@@H](NC(=O)c1cccc(-c2ccccc2NC(N)=O)c1)C(=O)N1CCC(c2ccc(Cl)cc2)CC1` — recorded log10 of IC50 = 2.18

Entry `CCC(=O)N[C@@H](C(=O)N1CC[C@](O)(c2ccc(Cl)cc2)C(C)(C)C1)C(C)C` — recorded log10 of IC50 = 0.56

Entry `CC(C)[C@@H](NC(=O)c1cccc(S(N)(=O)=O)c1)C(=O)N1CCC(c2ccc(Cl)cc2)CC1` — recorded log10 of IC50 = 2.09

Entry `CC(C)[C@@H](NC(=O)C1CCCC1)C(=O)N1CC[C@](O)(c2ccc(Cl)cc2)C(C)(C)C1` — recorded log10 of IC50 = 0.40

Entry `CC(C)[C@@H](NC(=O)c1ccc(F)c(O)c1)C(=O)N1CCC(c2ccc(Cl)cc2)CC1` — recorded log10 of IC50 = 1.68

Entry `CC(C)[C@@H](NC(=O)c1ccc(F)c(O)c1)C(=O)N1CC[C@](O)(c2ccc(Cl)cc2)C(C)(C)C1` — recorded log10 of IC50 = 1.11

Entry `CC(C)[C@@H](NC(=O)c1cccc(C(=O)O)c1)C(=O)N1CC[C@](O)(c2ccc(Cl)cc2)C(C)(C)C1` — recorded log10 of IC50 = 0.95

Entry `CC(C)[C@@H](NC(=O)c1cccc(S(N)(=O)=O)c1)C(=O)N1CC[C@](O)(c2ccc(Cl)cc2)C(C)(C)C1` — recorded log10 of IC50 = 1.00

Entry CC(C)[C@@H](NC(=O)C1CCCC1(O)CCN1CCOCC1)C(=O)N1CC[C@](O)(c2ccc(Cl)cc2)C(C)(C)C1 (some centres undefined) — recorded log10 of IC50 = 0.92

Entry `CC(C)[C@@H](NC(=O)[C@H]1CC[C@H](O)C1)C(=O)N1CC[C@](O)(c2ccc(Cl)cc2)C(C)(C)C1` — recorded log10 of IC50 = 1.08

Entry `CC(C)[C@@H](NC(=O)Cc1ccncc1)C(=O)N1CC[C@](O)(c2ccc(Cl)cc2)C(C)(C)C1` — recorded log10 of IC50 = 0.54

Entry `CC(C)[C@@H](NC(=O)Cc1ccccc1)C(=O)N1CC[C@](O)(c2ccc(Cl)cc2)C(C)(C)C1` — recorded log10 of IC50 = 0.26

Entry `CC(C)CC(=O)N[C@@H](C(=O)N1CC[C@](O)(c2ccc(Cl)cc2)C(C)(C)C1)C(C)C` — recorded log10 of IC50 = 0.28

Entry `CC(C)[C@@H](NC(=O)Cc1ccncc1)C(=O)N1CCC(c2ccc(Cl)cc2)CC1` — recorded log10 of IC50 = 2.03

Entry `CC(C)CCC(=O)N[C@@H](C(=O)N1CC[C@](O)(c2ccc(Cl)cc2)C(C)(C)C1)C(C)C` — recorded log10 of IC50 = 0.08
